- System: MALME-3M melanoma
- protocol-details: NCI-60 one-dose screen, 48 h (100 = growth as untreated, 0 = no growth, -100 = all killed)
- condition-notes: 10 µM unless noted
This is part of a sample that, as a whole, favours compounds with a hit. Of some 83,000 tested, about 20% had one in any assay.
Exercise: state measured growth for each of the molecules provided.
One number for each entry, in %.

Solved entries (count: 2):
# molecule, growth / %
rows = [
    ("Cn1c(=O)c2c(nc3n(-c4ccc(Cl)cc4Cl)c(Sc4nc(-c5ccccc5)c(C#N)c(=O)[nH]4)cn23)n(C)c1=O", 45.2),
    ("O=Nc1c(O)c(Cl)cc2ccccc12", 90.8),
]

Record growth per entry; entries follow.
1. COc1ccc(C2CC(c3ccc(Cl)cc3)=NN2/C=C2\SC(=S)N(NC(=O)Cc3ccccc3Nc3c(Cl)cccc3Cl)C2=O)cc1 (stereo not given)
2. CC1CCNC(C)C1 (stereo not given)
3. COc1ccc(-c2nc3ccc(-c4nc5ccc(N6CCN(c7ccccc7)CC6)cc5[nH]4)cc3[nH]2)cc1OC
4. Cn1c(NCCc2ccc(O)c(O)c2)nc2c1c(=O)n(Cc1ccc(Cl)c(Cl)c1)c(=O)n2C
5. O=C1CC(=NCC(=O)n2c(-c3ccccc3)nc3ccccc32)NN1
6. O=C(COc1ccc(/C=C2\CSc3ccccc3C2=O)cc1)Nc1nccs1

60.5
110
-63.8
75.7
111
77.8

Can you give me growth for all of these, one by one?
1. CCOc1cc2c(cc1OCC)C(c1cc(OC)c(O)cc1Cl)NCC2 (stereo not given)
2. COc1cc(C(=O)Oc2ccccc2OC(=O)c2cc(OC)c(OC)c(OC)c2)cc(OC)c1OC

1. 55.2
2. 130

---

- Test system: NCI-H522 lung
- protocol-details: NCI-60 one-dose screen, 48 h
- condition-notes: 10 µM unless noted
About 83,000 compounds went through this panel and 20% of them were active in at least one assay; those are over-represented in the sample as a whole. Activity calls are given as the source filed them. Rule for the calls: active = growth percent below 10; inactive = the rest.
Lab note: assign the record to one of y for active, n for inactive

Examples from the recorded data:
# structure-smiles-string, label-value
records = [
    ("NC(N)=N/N=C(/c1ccccc1)c1ccc(F)cc1", "y"),
    ("Cc1[nH]c(-c2cc(N)ccc2Cl)c2c1C(=O)CCCC2", "n"),
    ("COc1ccc(CCNc2nc3c(c(=O)n(Cc4ccc(Br)cc4)c(=O)n3C)n2C)cc1OC", "n"),
]

What was the test verdict on O=C(Nc1cccc2[nH]c(C(F)(F)F)nc12)c1ccc(-n2cnnn2)cc1 ?
n

Record: COc1ccc2nc(NC(=O)CSc3nnc4n3S(=O)(=O)c3ccccc3N4c3ccccc3)sc2c1
n

Entry NC(=O)c1cc(Br)ccc1NC(=O)/C=C/c1ccccc1 please
y

---

- Test system: EKVX NSCLC
- protocol-details: NCI-60 one-dose screen, 48 h (100 = growth as untreated, 0 = no growth, -100 = all killed)
- condition-notes: 10 µM unless noted
- Experimental: Growth inhibition of the EKVX human Non-Small Cell Lung tumor cell line is measured as a screen for anti-cancer activity. Cells are grown in 96 well plates and exposed to the test compound for 48 hours. Compounds are tested at a single concentration, which is 10^-5 M for most compounds. The reported endpoint is percent growth (GI% or GIPRCNT), where numbers from 0 - 100% represent growth inhibition, and numbers from -100% - 0 represent cell death. […]
The panel holds about 83,000 compounds, 20% with a hit somewhere; the sample as a whole holds those more often.
For each record, write down the corresponding growth.
One number for each entry, in %.

Examples from the recorded data:
# compound, endpoint-unit, growth
records = [
    ("CC(=O)O[C@H]1C(=O)[C@@]2(C)[C@H]([C@H](OC(=O)c3ccccc3)[C@]3(O)C[C@H](OC(=O)[C@H](OC(=O)CCC(=O)OC4CCC(S/N=C(N)/N=C(\\N)N(C)C)CC4)[C@@H](NC(=O)c4ccccc4)c4ccccc4)C(C)=C1C3(C)C)[C@]1(OC(C)=O)CO[C@@H]1C[C@@H]2O (stereo partly drawn)", "%", 37.3),
    ("CCOC(=O)C(C)(C#N)C1C=CCCC1 (stereo not drawn)", "%", 96.7),
]

Look at this compound and give its reported growth. CCCCC(=O)OCC1OC(n2cnc3c(=S)nc[nH]c32)C(OC(=O)CCCC)C1OC(=O)CCCC (stereo not drawn)
31.3
